# System: HIV-1US/92/727
# method-notes: Anti-HIV evaluation in PHA-stimulated human PBMCs, reverse transcriptase in supernatant
# Format: cell-based
# test-context: Human immunodeficiency virus 1, PBMC, 168 h; HIV-1US/92/727, human PBMCs, 7 days; read-out: EC50
observable: pEC50
Here pEC50 is given on a logarithmic scale as minus log10 of the concentration in mol/L.

Data request: Look at this molecule and give its reported pEC50. Cc1cn([C@H]2C[C@H](N=[N+]=[N-])[C@@H](CO)O2)c(=O)[nH]c1=O [AZT, 3′-Azido-3′-deoxythymidine, reference compound]
Data returned: 8.73

###

# method-notes: in vitro
# test-context: human
observable: CC50 at 7 days

Data request: Look at this molecule and give its reported CC50 at 7 days. Cc1cn([C@H]2C[C@H](N=[N+]=[N-])[C@@H](CO)O2)c(=O)[nH]c1=O [AZT, 3′-Azido-3′-deoxythymidine, reference compound]
Data returned: > 1000 nM
